B1: VH:VL chains; a variant is named by its letters at X, in order (parent)
chain 1: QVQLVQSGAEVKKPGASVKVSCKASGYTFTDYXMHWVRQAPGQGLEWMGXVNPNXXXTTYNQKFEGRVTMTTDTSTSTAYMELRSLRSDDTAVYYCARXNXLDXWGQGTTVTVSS
chain 2: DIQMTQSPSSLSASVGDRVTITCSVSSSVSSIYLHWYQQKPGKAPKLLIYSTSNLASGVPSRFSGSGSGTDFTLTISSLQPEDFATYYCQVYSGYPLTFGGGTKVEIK

- Variants of: B1
- testProtocol: yeast display scFab, FACS + sequencing
measuredParameter: non-specific binding call

Example results:
change | non-specific binding call
VTTKSAAA | no binding
VETGNSSA | no binding
SGAGDYSD | binds
YRRGGAAD | binds
FTGEDDVY | no binding

Consider the additional variant presented here.
// non-specific binding call lookup, variant = `ATTGGDWD` , result: no binding
